Listing: Improved value of relative affinity of selected binders
molecular target: T1, human PD-L1 protein (ELISA antigen) (human, UniProt Q9NZQ7 19-238, limits assumed); assay: relative to original antibody h_Nb1 (SEQ ID NO. 1); ELISA comparison per Example 10
T1 construct: One molecule is used for both ELISAs; also called PD-L1-biotin protein
T1 sequence (Q9NZQ7 19-238 limits assumed): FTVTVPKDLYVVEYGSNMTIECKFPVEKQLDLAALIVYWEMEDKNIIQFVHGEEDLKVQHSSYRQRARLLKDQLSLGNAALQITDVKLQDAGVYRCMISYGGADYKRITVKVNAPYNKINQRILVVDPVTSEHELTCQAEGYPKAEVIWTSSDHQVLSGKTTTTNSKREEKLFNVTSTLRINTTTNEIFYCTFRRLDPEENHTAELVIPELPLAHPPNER
No unit in the answer, only the number.

Solved cases (3 shown):
binder | val
h_Nb1_G99R (VHH, also called 83) VHH: DVQLQESGGGLVQPGGSLRLSCAASGFTFSSYAMSWVRQAPGKGLEWVSDINSGGDNTDYADSVKGRFTISRDNAKNTLYLQMNSLKPEDTAVYYCARRPKLCFSSWGQGTQVTVSS | 12.1
h_Nb1_D62W (VHH, also called 78) VHH: DVQLQESGGGLVQPGGSLRLSCAASGFTFSSYAMSWVRQAPGKGLEWVSDINSGGDNTDYAWSVKGRFTISRDNAKNTLYLQMNSLKPEDTAVYYCARGPKLCFSSWGQGTQVTVSS | 11.7
h_Nb1_D62Y (VHH, also called 79) VHH: DVQLQESGGGLVQPGGSLRLSCAASGFTFSSYAMSWVRQAPGKGLEWVSDINSGGDNTDYAYSVKGRFTISRDNAKNTLYLQMNSLKPEDTAVYYCARGPKLCFSSWGQGTQVTVSS | 5.8

Briefly, Improved value of relative affinity measured for h_Nb1_D59F (VHH, also called 77) VHH: DVQLQESGGGLVQPGGSLRLSCAASGFTFSSYAMSWVRQAPGKGLEWVSDINSGGDNTFYADSVKGRFTISRDNAKNTLYLQMNSLKPEDTAVYYCARGPKLCFSSWGQGTQVTVSS : 5.12
